Target: rodent FXR (Mus musculus, UniProt Q60641)
Sequence (Q60641 whole entry): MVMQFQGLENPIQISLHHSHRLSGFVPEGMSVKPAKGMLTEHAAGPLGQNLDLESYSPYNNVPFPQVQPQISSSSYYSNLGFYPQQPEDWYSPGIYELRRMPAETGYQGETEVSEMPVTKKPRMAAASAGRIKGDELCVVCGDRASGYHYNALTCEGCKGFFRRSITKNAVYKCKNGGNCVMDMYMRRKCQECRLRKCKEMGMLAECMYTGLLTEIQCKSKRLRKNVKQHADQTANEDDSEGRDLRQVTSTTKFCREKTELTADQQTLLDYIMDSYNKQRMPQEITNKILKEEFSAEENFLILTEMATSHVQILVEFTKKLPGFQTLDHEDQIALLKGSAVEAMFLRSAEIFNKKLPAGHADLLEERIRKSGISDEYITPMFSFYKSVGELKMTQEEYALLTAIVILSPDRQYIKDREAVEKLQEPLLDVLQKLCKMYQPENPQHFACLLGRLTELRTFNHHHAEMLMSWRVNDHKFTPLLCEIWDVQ
Assay: FXR transactivation in transfected CV-1 cells, hsp70 ecdysone receptor response element reporter
From the text: The full-length coding regions for human LRH-1 (GenBank AB019246) and human SHP-1 (GenBank L76571) were amplified by PCR and cloned into pSG5, creating pSG5-hLRH-1 and pSG5-hSHP-1, respectively. A consensus Kozak sequence was created during amplification. […] Underlined residues are those which have been mutated from the wild-type sequence. […]
MEASUREMENT KIND: EC50 (nM)

                            chemical_string  measurement_kind  quantitative_result
0  CC(C)c1onc(-c2c(Cl)cccc2Cl)c1COc1ccc(/C=C/c2cccc(C(=O)O)c2)c(Cl)c1              EC50                   80
